# credit: ChEMBL document CHEMBL4673298

test: Stability in human whole blood assessed as parent compound level at 1 mM incubated for 24 hrs by reversed-phase HPLC analysis; type: ADME, tissue-based; conditions: read-out: Stabilty
QUANTITY_MEASURED: remaining at 24 h, 1000 µM (%)

[[record]]
chem_smiles = "COC(=O)c1cccnc1COc1cccc(O)c1C=O"
val = 78

[[record]]
chem_smiles = "COC(=O)c1cccc(COc2cccc(O)c2C=O)n1"
val = 83


---

species on record: Homo sapiens; assay: Binding affinity to Hemoglobin in normal human whole blood assessed as increase in Hb affinity for oxygen incubated for 1.5 hrs by oxygen equilibrium curve study; format: tissue-based
Active and inactive are the calls of the source. No cut-off for these calls is given here.
QUANTITY_MEASURED: Activity

[[record]]
chem_smiles = "COC(=O)c1ccnc(COc2cccc(O)c2C=O)c1"
val = "Dose-dependent effect"

[[record]]
chem_smiles = "COC(=O)c1cccnc1COc1cccc(O)c1C=O"
val = "Dose-dependent effect"

[[record]]
chem_smiles = "COC(=O)c1cccc(COc2ccc(OC)cc2C=O)n1"
val = "inactive"

[[record]]
chem_smiles = "COC(=O)c1cccc(COc2cccc(O)c2C=O)n1"
val = "inactive"


Could you now consider this next molecule?
Reported Activity ( COC(=O)c1ncccc1COc1cccc(O)c1C=O ) = inactive
